- target: Beta-2 adrenergic receptor (Homo sapiens, UniProt P07550)
- Sequence (P07550 whole entry): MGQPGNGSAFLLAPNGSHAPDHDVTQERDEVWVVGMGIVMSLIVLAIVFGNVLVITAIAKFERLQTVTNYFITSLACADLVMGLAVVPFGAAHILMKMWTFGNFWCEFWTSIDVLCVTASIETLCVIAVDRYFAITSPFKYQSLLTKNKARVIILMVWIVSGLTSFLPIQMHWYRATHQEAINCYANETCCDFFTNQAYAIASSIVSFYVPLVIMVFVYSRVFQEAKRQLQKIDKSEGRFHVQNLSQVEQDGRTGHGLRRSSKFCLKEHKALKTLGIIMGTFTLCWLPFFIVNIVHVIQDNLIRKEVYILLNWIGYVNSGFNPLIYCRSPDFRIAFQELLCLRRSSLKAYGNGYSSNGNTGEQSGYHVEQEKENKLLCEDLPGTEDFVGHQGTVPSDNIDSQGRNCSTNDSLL
- protocol.details: Binding affinity to N-terminal FLAG-tagged C-terminal His-10-tagged human beta2 adrenoceptor expressed in insect Sf9 cells by surface plasmon resonance analysis in presence of maltose neopentyl glycol
- run.parameters: read-out: Kd
pKd: −log10 of the molar value.
measured.endpoint: pKd

> print(dat)
                               query.smiles   val
1          FC(F)(F)c1cc(N2CCNCC2)c2ccccc2n1  7.07
2                 Cc1cc(N2CCNCC2)c2ccccc2n1  7.14
3                        c1cc(N2CCNCC2)ccn1  3.85
4          FC(F)(F)c1ccc2c(N3CCNCC3)ccnc2c1  5.10
5                Clc1ccc2c(N3CCNCC3)ccnc2c1  7.12
6    Cc1ccc2nc(C(F)(F)F)cc(N3CCN(C)CC3)c2c1  5.74
7                  c1ccc2c(N3CCNCC3)ccnc2c1  6.46
8  Cc1ccc2nc(C(F)(F)F)cc(N3CCC(F)(F)CC3)c2c1  4.17

====

- target: UniProt P07550
- protocol.details: Binding affinity to N-terminal FLAG-tagged C-terminal His-10-tagged human beta2 adrenoceptor expressed in insect Sf9 cells by surface plasmon resonance analysis
measured.endpoint: Kd (nM)

> print(dat)
                 query.smiles  units.label    val
1      Clc1cncc(Cl)c1N1CCNCC1           nM   3500
2  Clc1ccc2c(N3CCNCC3)ccnc2c1           nM   82.5
3  c1ccc2c(C3CCNCC3)c[nH]c2c1           nM  22200
4   Cc1cc(N2CCNCC2)c2ccccc2n1           nM   93.4

====

- target: Vasopressin V2 receptor (Homo sapiens)
- protocol.details: Agonist activity at AVPR2 (unknown origin) assessed as stimulation of beta arrestin recruitment
- Format: functional
Activity calls are given as the source filed them. The rule behind the calls is not given here.
measured.endpoint: Activity

> print(dat)
                 query.smiles       val
1      Clc1cncc(Cl)c1N1CCNCC1  inactive
2  c1ccc2c(C3CCNCC3)c[nH]c2c1  inactive
3   Cc1cc(N2CCNCC2)c2ccccc2n1  inactive
4  Clc1ccc2c(N3CCNCC3)ccnc2c1  inactive

Entry source: ChEMBL document CHEMBL2440021
